# Tested on: Saccharomyces cerevisiae
# TEST_DESCRIPTION: protein stability index of tFT-peptide fusion (C-terminal peptide) (PSI (0-1 scale)); higher = more stable (slower turnover)
# COND: genetic background: das1 deletion; temperature: 30 C
Tick 1 (yes) if protein stability index is 0.7 or greater. Tick 0 (no) if protein stability index is less than 0.7.

Q. Please indicate if the recorded protein stability index for AETLLSQRSRDR [DNF2 C-terminal 12 aa] meets or exceeds 0.7.
A. 1 (yes)

Q. Please indicate if the recorded protein stability index for EGEISKGAENAT [YDR444W C-terminal 12 aa] meets or exceeds 0.7.
A. 0 (no)

Q. Please indicate if the recorded protein stability index for EEQINGKRKRKD [YJR107C-A C-terminal 12 aa] meets or exceeds 0.7.
A. 0 (no)

----------
# Tested on: Saccharomyces cerevisiae
# TEST_DESCRIPTION: protein stability index of tFT-peptide fusion (C-terminal peptide) (PSI (0-1 scale)); higher = more stable (slower turnover)
# COND: genetic background: wild type; temperature: 30 C
READOUT_NAME: protein stability index
Answer field: number only, no words.

Some entries whose results are on file:
| BIOSEQUENCE | protein stability index |
| --- | --- |
| EKQKIIRSGCES | 0.746 |
| VDREGFTVLGRV | 0.657 |
| LPPCAPPLPPSS | 0.706 |
| LPGSVLLFPSFS | 0.747 |
| LLGDPGDFFPAS | 0.713 |

Q. Please tell me: protein stability index of GGRWGGVSLGGR , system Saccharomyces cerevisiae?
A. 0.693

Q. Please tell me: protein stability index of SRRCKAFLCRGY , system Saccharomyces cerevisiae?
A. 0.666

Q. Please tell me: protein stability index of SQFWGCALFIEH , system Saccharomyces cerevisiae?
A. 0.652

Q. Please tell me: protein stability index of FCLFTYIPSSCL , system Saccharomyces cerevisiae?
A. 0.664

Q. Please tell me: protein stability index of RLTEVRVTLGSL , system Saccharomyces cerevisiae?
A. 0.711

Q. Please tell me: protein stability index of ALIGMFATVALI , system Saccharomyces cerevisiae?
A. 0.689

Q. Please tell me: protein stability index of SLPWVLLPTGPY , system Saccharomyces cerevisiae?
A. 0.751

Q. Please tell me: protein stability index of TLGGEITYKVKT , system Saccharomyces cerevisiae?
A. 0.684

Q. Please tell me: protein stability index of VKSGSTALRVNS , system Saccharomyces cerevisiae?
A. 0.607

Q. Please tell me: protein stability index of PLGCGLTRCVAT , system Saccharomyces cerevisiae?
A. 0.599

Q. Please tell me: protein stability index of TSFSSGEALGVG , system Saccharomyces cerevisiae?
A. 0.483

Q. Please tell me: protein stability index of GLVGLSLSSCGR , system Saccharomyces cerevisiae?
A. 0.653

Q. Please tell me: protein stability index of PPPPPLHPPPPL , system Saccharomyces cerevisiae?
A. 0.605

Q. Please tell me: protein stability index of PRIGPAPLPRLS , system Saccharomyces cerevisiae?
A. 0.714

----------
# Test system: Saccharomyces cerevisiae
# TEST_DESCRIPTION: protein stability index of tFT-peptide fusion (C-terminal peptide) (PSI (0-1 scale)); higher = more stable (slower turnover)
# COND: genetic background: cdc34-1; temperature: 37 C
READOUT_NAME: protein stability index
Answer field: number only, no words.

Some entries whose results are on file:
| BIOSEQUENCE | protein stability index |
| --- | --- |
| FSMRWTFRYWVN | 0.301 |
| VLSCVWFVVVGV | 0.247 |
| KHTGTGNAPNCD | 0.686 |
| GWWCGIGVAVSV | 0.432 |
| IGSFFLFFLLIF | 0.281 |
| LFTRWSILFKLF | 0.335 |

Q. Fill in the blank: the reported protein stability index of GKGVFGGLFFLV is ____.
A. 0.667

Q. Fill in the blank: the reported protein stability index of PPSPPLLFHFPP is ____.
A. 0.669

Q. Fill in the blank: the reported protein stability index of WVSFFILYCVYR is ____.
A. 0.274

Q. Fill in the blank: the reported protein stability index of PLPSFLYFILLR is ____.
A. 0.22

Q. Fill in the blank: the reported protein stability index of LICRFLFFVCVG is ____.
A. 0.412

Q. Fill in the blank: the reported protein stability index of VRLYLRSCVVES is ____.
A. 0.347

Q. Fill in the blank: the reported protein stability index of GRVCWVVLAGLV is ____.
A. 0.593

Q. Fill in the blank: the reported protein stability index of GIGYMFLNVWLV is ____.
A. 0.234

Q. Fill in the blank: the reported protein stability index of GEGISCLLRRLT is ____.
A. 0.662

Q. Fill in the blank: the reported protein stability index of AFYLCLYFMPVS is ____.
A. 0.454

Q. Fill in the blank: the reported protein stability index of RWVFAGVGLFVG is ____.
A. 0.691

Q. Fill in the blank: the reported protein stability index of LILLTFTLRVPV is ____.
A. 0.192

Q. Fill in the blank: the reported protein stability index of MVVILLVHWEYV is ____.
A. 0.15

----------
# System: Saccharomyces cerevisiae
# TEST_DESCRIPTION: protein stability index of tFT-peptide fusion (C-terminal peptide) (PSI (0-1 scale)); higher = more stable (slower turnover)
# COND: genetic background: cdc34-1; temperature: 37 C
READOUT_NAME: protein stability index
Answer field: number only, no words.

Some entries whose results are on file:
| BIOSEQUENCE | RECORDED_VALUE |
| --- | --- |
| LLFTFSLSFFFR | 0.405 |
| YCSIQIQLVYGI | 0.341 |
| LFFFVFFVLFSV | 0.227 |
| LLSFYFVLAYMV | 0.357 |

Please turn your attention to the following entry.
Q. Please tell me: protein stability index of SWSLRLSTIFSV , system Saccharomyces cerevisiae?
A. 0.609

----------
# System: Saccharomyces cerevisiae
# TEST_DESCRIPTION: protein stability index of tFT-peptide fusion (C-terminal peptide) (PSI (0-1 scale)); higher = more stable (slower turnover)
# COND: genetic background: wild type; temperature: 30 C
READOUT_NAME: protein stability index
Answer field: number only, no words.

| BIOSEQUENCE | protein stability index |
| --- | --- |
| FPAMVRVDTCGV | 0.673 |
| VCWVYESWKCLA | 0.168 |
| CSPCSFCDLVSH | 0.691 |
| PPHLPPPPPVPA | 0.575 |

Please turn your attention to the following entry.
Q. Fill in the blank: the reported protein stability index of KKKKNNKKKQRT is ____.
A. 0.731

----------
Listed here are sequences together with their documented protein stability index.
# Test system: Saccharomyces cerevisiae
# TEST_DESCRIPTION: protein stability index of tFT-peptide fusion (C-terminal peptide) (PSI (0-1 scale)); higher = more stable (slower turnover)
# COND: genetic background: wild type; temperature: 30 C
Answer field: number only, no words.

| BIOSEQUENCE | TARGET_ENTITY | protein stability index |
| --- | --- | --- |
| GEDPYADLFRDF [TPK1 C-terminal 12 aa] | Saccharomyces cerevisiae | 0.685 |
| SEINDDFHQWAQ [DEP1 C-terminal 12 aa] | Saccharomyces cerevisiae | 0.698 |
| AWDIKQTLDSLA [CHO2 C-terminal 12 aa] | Saccharomyces cerevisiae | 0.697 |
| EKWASQFGSSGS [SAP1 C-terminal 12 aa] | Saccharomyces cerevisiae | 0.685 |
| ELLYIIDHLSEL [BTS1 C-terminal 12 aa] | Saccharomyces cerevisiae | 0.67 |

Q. Fill in the blank: the reported protein stability index of EMKHSLFRNPFH [PIG2 C-terminal 12 aa] is ____.
A. 0.678

Q. Fill in the blank: the reported protein stability index of YLYVFLQQARLE [YBR032W C-terminal 12 aa] is ____.
A. 0.473

Q. Fill in the blank: the reported protein stability index of QNEICQYDNTSP [YGR109W-B C-terminal 12 aa] is ____.
A. 0.694

----------
# System: Saccharomyces cerevisiae
# TEST_DESCRIPTION: protein stability index of tFT-peptide fusion in deletion strain of DAS1 (PSI (0-1 scale)); higher = more stable (slower turnover)
READOUT_NAME: protein stability index
Answer field: number only, no words.

Q. Fill in the blank: the reported protein stability index of CTNCGYKFRTNN is ____.
A. 0.696

Q. Fill in the blank: the reported protein stability index of LKILRQKMNHWN is ____.
A. 0.666

Q. Fill in the blank: the reported protein stability index of PDKRCHLIKLLN is ____.
A. 0.596

Q. Fill in the blank: the reported protein stability index of PDKRNHLIKLLV is ____.
A. 0.618
